test system: phenylquinone-induced writhing in mice; assay: Anti-nociceptive activity in phenylquinone-induced writhing test in mice; assay type: in vivo, mouse (male NMRI); settings: Mus musculus, iv, 10 min; i.v., phenylquinone i.p. 10 min after compound, writhing counted 5-20 min after phenylquinone; 10 animals per dose; 95% confidence range in parentheses
Could you mark each record rule met if its ED50 falls strictly under 4 mg/kg, and rule not met if it equals or exceeds it?

• CN(C)CC1=C(c2cccc(O)c2)CC(c2ccccc2)CCC1.Cl (centres unmarked) [Example 2b] = rule not met
• CN(C)CC1=C(c2cccc(O)c2)CC(c2cccc3ccccc23)CCC1.Cl (centres unmarked) [Example 2c] = rule not met
• CN(C)CC1=C(c2cccc(O)c2)CC(c2cccc(O)c2)CCC1.Cl (centres unmarked) [Example 1] = rule met
• CN(C)CC1=C(c2cccc(O)c2)CC(c2ccc(Cl)cc2)CCC1.Cl (centres unmarked) [Example 2a] = rule not met
• CN(C)CC1=C(c2cccc(O)c2)CC(c2ccc(O)c(F)c2)CCC1.Cl (centres unmarked) [Example 2i] = rule met
